Target under test: D(1A) dopamine receptor (Homo sapiens) (UniProt P21728)
Sequence (P21728 whole entry, looked up): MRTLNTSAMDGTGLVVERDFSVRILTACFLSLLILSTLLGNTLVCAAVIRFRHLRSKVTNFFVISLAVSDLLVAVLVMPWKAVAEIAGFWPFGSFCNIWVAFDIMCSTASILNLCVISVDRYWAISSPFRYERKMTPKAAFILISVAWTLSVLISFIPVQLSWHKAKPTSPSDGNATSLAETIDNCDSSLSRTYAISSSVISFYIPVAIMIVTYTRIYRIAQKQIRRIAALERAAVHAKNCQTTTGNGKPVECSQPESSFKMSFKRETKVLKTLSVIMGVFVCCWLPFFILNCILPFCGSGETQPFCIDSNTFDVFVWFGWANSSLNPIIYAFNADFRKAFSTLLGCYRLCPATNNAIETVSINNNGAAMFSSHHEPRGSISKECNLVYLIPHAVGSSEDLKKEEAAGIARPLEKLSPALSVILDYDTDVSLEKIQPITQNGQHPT
Test protocol: HTS Assay for Allosteric Agonists of the Human D1 Dopamine Receptor: Primary Screen for Potentiators (AID 488982)
Study conditions: HEK293 T-REx D1 inducible cells, calcium flux, kinetic fluorescence; series mostly up to 8.37 µM
Records with an inconclusive call do not appear. Activity calls are given as the source filed them. The call rests on the fitted dose curve; in most records, active means well fitted activation curve with a large enough effect; inconclusive means small, poorly fitted or top-dose-only effect; inactive means no such curve, though single readings can be large or run the other way.
Classes to choose from: active, inactive

For `Cc1cn([C@H]2C[C@H](N=[N+]=[N-])[C@@H](CO)O2)c(=O)[nH]c1=O` , which call appears in the assay record?
inactive

Then what about the molecule COc1ccc(C2CNC(=O)C2)cc1OC1CCCC1 (stereo not drawn) ?
inactive

Follow-up item: `CC#C[C@]1(O)CC[C@H]2[C@@H]3CCC4=CC(=O)CCC4=C3[C@@H](c3ccc(N(C)C)cc3)C[C@@]21C`
active

Next: `CN1CCC(=C2c3ccccc3C=Cc3ccccc32)CC1`
inactive

Field entry: COc1ccccc1OCC(O)CN1CCN(CC(=O)Nc2c(C)cccc2C)CC1 (stereo not drawn)
inactive

Same again, this time with `O=c1[nH]cc(F)c(=O)[nH]1`
inactive

Would you mind doing `O=C(c1ccc(F)cc1)C1CCN(CCn2c(=O)[nH]c3ccccc3c2=O)CC1` as well?
inactive

# iterate: `OCCN(CCO)c1nc(N2CCCCC2)c2nc(N(CCO)CCO)nc(N3CCCCC3)c2n1`
active

Try this molecule too: `Cc1cn([C@H]2C=C[C@@H](CO)O2)c(=O)[nH]c1=O`
inactive

How about this molecule: COc1ccccc1N1CCN(CC(O)COc2cccc3ccccc23)CC1 (stereo not drawn)
inactive

Next record, please: `CN(C)C(=O)C(CCN1CCC(O)(c2ccc(Cl)cc2)CC1)(c1ccccc1)c1ccccc1`
inactive

Can you handle `CNCCCC12CCC(c3ccccc31)c1ccccc12` next?
inactive

And then COc1ccc(CCN(C)CCCC(C#N)(c2ccc(OC)c(OC)c2)C(C)C)cc1OC (stereo not drawn) , what is it?
inactive

// same read-out, input: `O=C1Cc2cc(CCN3CCN(c4nsc5ccccc45)CC3)c(Cl)cc2N1`
inactive

Please give the result for NC(CO)C(=O)NNCc1ccc(O)c(O)c1O (stereo not drawn) too.
inactive

What would you report for `CN(C)CCCN1c2ccccc2CCc2ccc(Cl)cc21` ?
inactive

And what about the molecule `CCOC(=O)C(C)(C)Oc1ccc(Cl)cc1` ?
inactive

Lookup `CCC1(c2ccccc2)C(=O)NCNC1=O`
inactive

What do you get for `COc1ccc2[nH]cc(CCNC(C)=O)c2c1` ?
inactive

Now the same for `Clc1ccc2c(c1)C(N1CCNCC1)=Nc1ccccc1O2`
inactive

Now consider `Cn1ccc2cc3c(cc21)CCN3C(=O)Nc1cccnc1` .
inactive

Likewise for CC1COc2c(N3CCN(C)CC3)c(F)cc3c(=O)c(C(=O)O)cn1c23 (stereo not drawn) ?
inactive

Another: `CCCCc1oc2ccccc2c1C(=O)c1cc(I)c(OCCN(CC)CC)c(I)c1`
inactive
